- Test system: LOX IMVI
- test: NCI tumour cell line growth inhibition, 48 h
Active and inactive are the calls of the source. No stated cut-off is given here; in the data, active = GI50 up to about 1.1 µM and inactive = higher.
reported property: GI50

> print(dat)
                                    molecule  reported.property           meas.value
 1  Cc1ccc(C(=O)C(C)N)cc1 (stereo unspecified)               GI50  > 100 µM (inactive)
 2  CC(C)(C)c1cc(/C=C2/NC(=O)NC2=O)cc(C(C)(C)C)c1O               GI50   15.8 µM (inactive)
 3                      CCCCCCCCCCCCNC(=S)OC               GI50   15.2 µM (inactive)
 4  O=C1c2ccccc2C2(c3ccc(Cl)cc3)N[C@H]3CCCC[C@@H]3N12 (stereo partly specified)               GI50  > 100 µM (inactive)
 5  COc1cccc(/C=N/C(/N=C/c2cccc(OC)c2O)c2cccc(OC)c2O)c1O               GI50   10.5 µM (inactive)
 6  CCOC(=O)c1sc2c(c1O)c(=O)n(-c1ccccc1)c(=S)n2-c1ccccc1               GI50  > 100 µM (inactive)
 7  Nc1nc(-c2ccc3ccccc3c2)cc(-c2cc(-c3ccc4ccccc4c3)nc(N)n2)n1               GI50  > 100 µM (inactive)
 8       c1ccc2c(c1)nnn2CNc1ccc(N2CCCCC2)cc1               GI50  > 100 µM (inactive)
 9  CC12C3C4C1C1C2C3C41CO (stereo unspecified)               GI50  > 100 µM (inactive)
10    Cc1ccc2[nH]c3c4c5ccccc5nc-4c[nH]c3c2c1               GI50   17.2 µM (inactive)
11  Cn1c(=O)c2[nH]c(/N=N/N3CCN(CCO)CC3)nc2n(C)c1=O               GI50  > 100 µM (inactive)
